Target Entity: T1, human collagen type I, acid soluble, extracted from placenta (Sigma C7774) (human, UniProt P02452 162-1218; P08123 80-1119)
T1 construct: tissue extract, gelled and dried in wells; also called dried human collagen; h-Collagen
T1 sequence (P02452 162-1218 limits assumed, chain 1 of 2): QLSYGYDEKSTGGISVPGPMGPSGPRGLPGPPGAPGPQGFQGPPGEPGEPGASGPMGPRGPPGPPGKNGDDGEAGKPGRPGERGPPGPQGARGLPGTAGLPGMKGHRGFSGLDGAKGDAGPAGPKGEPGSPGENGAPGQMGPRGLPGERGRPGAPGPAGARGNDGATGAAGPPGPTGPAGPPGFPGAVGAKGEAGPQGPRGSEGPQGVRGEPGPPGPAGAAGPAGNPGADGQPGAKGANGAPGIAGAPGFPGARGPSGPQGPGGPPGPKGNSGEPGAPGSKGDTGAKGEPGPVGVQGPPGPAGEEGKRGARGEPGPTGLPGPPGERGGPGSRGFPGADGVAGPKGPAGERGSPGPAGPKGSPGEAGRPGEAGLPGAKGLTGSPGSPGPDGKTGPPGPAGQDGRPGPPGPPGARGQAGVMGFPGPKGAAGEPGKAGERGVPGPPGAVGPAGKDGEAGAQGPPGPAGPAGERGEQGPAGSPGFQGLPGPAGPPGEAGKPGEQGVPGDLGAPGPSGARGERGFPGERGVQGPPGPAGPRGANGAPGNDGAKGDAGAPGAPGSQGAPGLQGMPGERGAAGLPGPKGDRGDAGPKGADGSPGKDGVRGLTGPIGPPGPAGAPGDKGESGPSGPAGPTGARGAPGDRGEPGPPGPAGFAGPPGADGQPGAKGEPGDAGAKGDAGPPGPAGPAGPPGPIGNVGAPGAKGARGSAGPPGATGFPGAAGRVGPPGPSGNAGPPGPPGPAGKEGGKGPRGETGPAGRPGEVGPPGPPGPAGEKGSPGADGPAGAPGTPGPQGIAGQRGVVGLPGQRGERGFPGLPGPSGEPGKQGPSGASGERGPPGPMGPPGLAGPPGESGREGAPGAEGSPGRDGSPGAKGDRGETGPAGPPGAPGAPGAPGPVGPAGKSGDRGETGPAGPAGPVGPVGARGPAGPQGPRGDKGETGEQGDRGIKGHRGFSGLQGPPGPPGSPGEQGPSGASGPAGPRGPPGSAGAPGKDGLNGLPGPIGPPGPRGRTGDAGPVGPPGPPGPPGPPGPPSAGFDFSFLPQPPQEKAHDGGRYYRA
T1 sequence (P08123 80-1119 limits assumed, chain 2 of 2): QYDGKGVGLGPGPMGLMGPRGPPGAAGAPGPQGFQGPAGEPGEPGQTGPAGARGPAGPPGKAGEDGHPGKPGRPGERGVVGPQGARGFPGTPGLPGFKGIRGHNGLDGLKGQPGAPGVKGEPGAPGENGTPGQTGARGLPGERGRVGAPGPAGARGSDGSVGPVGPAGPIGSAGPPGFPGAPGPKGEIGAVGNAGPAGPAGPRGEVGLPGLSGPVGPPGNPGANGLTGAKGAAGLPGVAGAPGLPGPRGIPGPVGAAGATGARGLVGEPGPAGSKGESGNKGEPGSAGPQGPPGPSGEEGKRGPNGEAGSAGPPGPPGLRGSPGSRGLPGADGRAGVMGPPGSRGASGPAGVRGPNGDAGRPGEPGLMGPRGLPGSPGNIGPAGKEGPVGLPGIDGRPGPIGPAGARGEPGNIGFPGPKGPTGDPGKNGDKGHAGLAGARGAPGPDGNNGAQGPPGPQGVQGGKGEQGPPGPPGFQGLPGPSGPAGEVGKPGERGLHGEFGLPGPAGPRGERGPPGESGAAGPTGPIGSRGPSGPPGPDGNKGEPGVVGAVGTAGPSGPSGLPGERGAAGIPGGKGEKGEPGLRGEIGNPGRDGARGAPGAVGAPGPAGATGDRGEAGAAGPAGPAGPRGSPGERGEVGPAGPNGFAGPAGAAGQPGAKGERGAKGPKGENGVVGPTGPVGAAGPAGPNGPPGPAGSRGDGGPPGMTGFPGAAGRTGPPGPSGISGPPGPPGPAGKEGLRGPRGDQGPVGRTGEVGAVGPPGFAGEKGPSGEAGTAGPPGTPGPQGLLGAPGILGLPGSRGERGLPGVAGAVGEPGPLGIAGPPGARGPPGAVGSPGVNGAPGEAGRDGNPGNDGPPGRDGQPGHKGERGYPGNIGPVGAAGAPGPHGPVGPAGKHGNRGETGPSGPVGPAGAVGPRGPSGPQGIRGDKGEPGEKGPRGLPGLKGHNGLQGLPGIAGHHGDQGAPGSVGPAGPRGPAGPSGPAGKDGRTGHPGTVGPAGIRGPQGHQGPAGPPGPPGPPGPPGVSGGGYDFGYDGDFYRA
Assay Procedure: dried collagen assay; also: test concentration or dose not given here
Bridge positions count the residues as written; N and C are the ends. Ends that are not written are not given here.
Measured Attribute: % bound (%)

Would you please look over these solved cases?
GWQCQGTDSLDWKCLYM (disulfide 4-14 (inferred), cyclic, disulfide) [SEQ ID NO 77] :: 12
DWTCSGDEYTWHCNYE (disulfide 4-13 (inferred), cyclic, disulfide) [SEQ ID NO 17] :: 78
ERNCVLNDFRWTCGGD (disulfide 4-13 (inferred), cyclic, disulfide) [SEQ ID NO 75] :: 10
SWICTGDNIDWNCRFA (disulfide 4-13 (inferred), cyclic, disulfide) [SEQ ID NO 28] :: 20

1. PWYCSGDHLDWKCIYQ (disulfide 4-13 (inferred), cyclic, disulfide) [SEQ ID NO 20]
2. LTVCHPPYYGRCNFV (disulfide 4-12 (inferred), cyclic, disulfide) [SEQ ID NO 10]
Kindly identify the item with the lower % bound figure among these two: 1 and 2 Give the chosen item's label as your response.
2
(2: 9%, 1: 64%)
